Data origin, for the record: patent US20090118184A1

Below: a set of entries, each annotated with reported Factor VIIIa Decay relative to the WT value, Factor IXa present.
Target: T1, factor VIIIa A1/A3C1C2 dimer, wild type (human, UniProt P00451 20-391; P00451 1709-2351)
T1 sequence 1: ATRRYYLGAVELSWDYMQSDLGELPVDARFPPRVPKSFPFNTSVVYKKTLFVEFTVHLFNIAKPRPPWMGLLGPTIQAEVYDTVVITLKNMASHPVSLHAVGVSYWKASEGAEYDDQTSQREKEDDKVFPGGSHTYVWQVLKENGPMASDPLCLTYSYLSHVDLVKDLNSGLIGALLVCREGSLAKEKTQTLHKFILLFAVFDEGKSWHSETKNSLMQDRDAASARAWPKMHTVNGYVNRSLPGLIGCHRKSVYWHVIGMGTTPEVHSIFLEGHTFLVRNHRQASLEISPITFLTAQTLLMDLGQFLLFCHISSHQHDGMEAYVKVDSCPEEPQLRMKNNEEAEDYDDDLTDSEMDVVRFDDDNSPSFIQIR
T1 sequence 2: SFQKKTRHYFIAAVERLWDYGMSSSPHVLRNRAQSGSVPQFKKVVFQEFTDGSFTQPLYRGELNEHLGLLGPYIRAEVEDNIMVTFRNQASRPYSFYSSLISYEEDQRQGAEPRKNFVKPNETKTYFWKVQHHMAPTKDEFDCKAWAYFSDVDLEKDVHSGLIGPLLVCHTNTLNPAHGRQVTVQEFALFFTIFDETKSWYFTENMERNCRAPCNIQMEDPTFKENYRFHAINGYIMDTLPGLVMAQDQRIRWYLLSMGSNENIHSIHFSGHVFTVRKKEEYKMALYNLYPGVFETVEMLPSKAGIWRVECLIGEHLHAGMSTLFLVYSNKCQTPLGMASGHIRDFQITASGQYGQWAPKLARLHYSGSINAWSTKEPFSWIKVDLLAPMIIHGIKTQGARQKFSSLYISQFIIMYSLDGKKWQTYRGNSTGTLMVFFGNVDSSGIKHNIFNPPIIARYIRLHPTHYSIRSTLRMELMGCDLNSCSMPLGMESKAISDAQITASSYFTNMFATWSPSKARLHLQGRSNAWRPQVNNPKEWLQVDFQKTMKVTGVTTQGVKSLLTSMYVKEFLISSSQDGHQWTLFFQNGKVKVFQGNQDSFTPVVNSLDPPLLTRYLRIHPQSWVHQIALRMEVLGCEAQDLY
Assay: cell-based or functional assay

factor VIIIa A2 subunit, Asp519Val (other) SVAKKHPKTWVHYIAAEEEDWDYAPLVLAPDDRSYKSQYLNNGPQRIGRKYKKVRFMAYTDETFKTREAIQHESGILGPLLYGEVGDTLLIIFKNQASRPYNIYPHGITDVRPLYSRRLPKGVKHLKDFPILPGEIFKYKWTVTVEVGPTKSDPRCLTRYYSSFVNMERDLASGLIGPLLICYKESVDQRGNQIMSDKRNVILFSVFDENRSWYLTENIQRFLPNPAGVQLEDPEFQASNIMHSINGYVFDSLQLSVCLHEVAYWYILSIGAQTDFLSVFFSGYTFKHKMVYEDTLTLFPFSGETVFMSMENPGLWILGCHNSDFRNRGMTALLKVSSCDKNTGDYYEDSYEDISAYLLSKNNAIEPR | 0.44 relative to WT
factor VIIIa A2 subunit, Glu665Ala (other) SVAKKHPKTWVHYIAAEEEDWDYAPLVLAPDDRSYKSQYLNNGPQRIGRKYKKVRFMAYTDETFKTREAIQHESGILGPLLYGEVGDTLLIIFKNQASRPYNIYPHGITDVRPLYSRRLPKGVKHLKDFPILPGEIFKYKWTVTVEDGPTKSDPRCLTRYYSSFVNMERDLASGLIGPLLICYKESVDQRGNQIMSDKRNVILFSVFDENRSWYLTENIQRFLPNPAGVQLEDPEFQASNIMHSINGYVFDSLQLSVCLHEVAYWYILSIGAQTDFLSVFFSGYTFKHKMVYADTLTLFPFSGETVFMSMENPGLWILGCHNSDFRNRGMTALLKVSSCDKNTGDYYEDSYEDISAYLLSKNNAIEPR | 0.51 relative to WT
factor VIIIa A2 subunit, wild type (other) SVAKKHPKTWVHYIAAEEEDWDYAPLVLAPDDRSYKSQYLNNGPQRIGRKYKKVRFMAYTDETFKTREAIQHESGILGPLLYGEVGDTLLIIFKNQASRPYNIYPHGITDVRPLYSRRLPKGVKHLKDFPILPGEIFKYKWTVTVEDGPTKSDPRCLTRYYSSFVNMERDLASGLIGPLLICYKESVDQRGNQIMSDKRNVILFSVFDENRSWYLTENIQRFLPNPAGVQLEDPEFQASNIMHSINGYVFDSLQLSVCLHEVAYWYILSIGAQTDFLSVFFSGYTFKHKMVYEDTLTLFPFSGETVFMSMENPGLWILGCHNSDFRNRGMTALLKVSSCDKNTGDYYEDSYEDISAYLLSKNNAIEPR | 1 relative to WT
factor VIIIa A2 subunit, Asp519Ala (other) SVAKKHPKTWVHYIAAEEEDWDYAPLVLAPDDRSYKSQYLNNGPQRIGRKYKKVRFMAYTDETFKTREAIQHESGILGPLLYGEVGDTLLIIFKNQASRPYNIYPHGITDVRPLYSRRLPKGVKHLKDFPILPGEIFKYKWTVTVEAGPTKSDPRCLTRYYSSFVNMERDLASGLIGPLLICYKESVDQRGNQIMSDKRNVILFSVFDENRSWYLTENIQRFLPNPAGVQLEDPEFQASNIMHSINGYVFDSLQLSVCLHEVAYWYILSIGAQTDFLSVFFSGYTFKHKMVYEDTLTLFPFSGETVFMSMENPGLWILGCHNSDFRNRGMTALLKVSSCDKNTGDYYEDSYEDISAYLLSKNNAIEPR | 0.41 relative to WT

Attention now shifts to the item below.
Quick one: give measured Factor VIIIa Decay relative to the WT value, Factor IXa present for factor VIIIa A2 subunit, Glu665Val (other) SVAKKHPKTWVHYIAAEEEDWDYAPLVLAPDDRSYKSQYLNNGPQRIGRKYKKVRFMAYTDETFKTREAIQHESGILGPLLYGEVGDTLLIIFKNQASRPYNIYPHGITDVRPLYSRRLPKGVKHLKDFPILPGEIFKYKWTVTVEDGPTKSDPRCLTRYYSSFVNMERDLASGLIGPLLICYKESVDQRGNQIMSDKRNVILFSVFDENRSWYLTENIQRFLPNPAGVQLEDPEFQASNIMHSINGYVFDSLQLSVCLHEVAYWYILSIGAQTDFLSVFFSGYTFKHKMVYVDTLTLFPFSGETVFMSMENPGLWILGCHNSDFRNRGMTALLKVSSCDKNTGDYYEDSYEDISAYLLSKNNAIEPR
0.34 relative to WT
